System: SK-MEL-5 melanoma
Protocol summary: NCI-60 one-dose screen, 48 h (100 = growth as untreated, 0 = no growth, -100 = all killed)
Stated conditions: 10 µM unless noted
This is part of a sample that, as a whole, favours compounds with a hit. Of some 83,000 tested, about 20% had one in any assay.
This listing pairs compounds with measured growth.
The response must be a number in % with no trailing unit.

Completed entries (count: 4):
# Compound, Quantity unit, growth
data = [
    ("C=C1C(=O)O[C@H]2[C@H]1CC/C(COC(=O)/C=C\\C(=O)NCc1ccc(Cn3c(=O)sn(CCCl)c3=O)cc1)=C\\CC[C@@]1(C)O[C@@H]21", "%", 101),
    ("CCN1CCN(c2cc(C)nc(N(CCNc3ccnc4cc(Cl)ccc34)Cc3ccc4c(c3)OCO4)n2)CC1", "%", -95.8),
    ("C=C(C)[C@@H]1CCC[C@]2(C(=O)O)CC[C@]3(C)[C@@H](CC[C@@H]4[C@@]5(C)C/C(=C/c6ccncc6)C(=O)C(C)(C)[C@@H]5CC[C@]43C)[C@@H]12", "%", 10.6),
    ("C=C(c1ccc(OC)c(/C=C/C(=O)c2ccc3c(c2)OCO3)c1)c1cc(OC)c(OC)c(OC)c1", "%", 0.661),
]

# growth (compound: COc1ccc(C(O)c2cc3c(N)c(C(=O)Nc4cccc(Cl)c4C)sc3nc2C)cc1 (stereo not drawn) ) is -53.7

# growth (compound: `Cc1ccc2c(-c3nnc(N)s3)cc(=O)oc2c1C` ) is 101

# growth (compound: `CCN1CCN(CC(=O)Nc2nc3ccc(NCc4ccc(F)cc4)cc3s2)CC1` ) is 90.8

# growth (compound: N#Cc1c(-c2ccccc2)nc(SCC(O)CN2CCOCC2)nc1N1CCOCC1 (stereo not drawn) ) is 66.6

# growth (compound: `Cc1ccc(/C=C/C(=O)c2cccc(OCCCOc3cccc(C(=O)/C=C/c4ccc(C)cc4)c3)c2)cc1` ) is 90.2

# growth (compound: `COc1cc(Cl)c(C)cc1NC(=O)c1cc2ccccc2cc1O` ) is -35.1

# growth (compound: `S=c1nc2oc(-c3ccccc3)c(-c3ccccc3)c2c(/N=C\c2ccco2)[nH]1` ) is 94.6

# growth (compound: CC1=C(C(=O)Nc2ccccc2)C(c2ccc3c(c2)OCO3)NC(=S)N1 (stereo not drawn) ) is 102

# growth (compound: `Oc1c(CN2CCCC2)cc(CSCc2ccccc2)c2cccnc12` ) is -26.3

###

System: UO-31 renal
Protocol summary: NCI-60 one-dose screen, 48 h
Stated conditions: 10 µM unless noted
About 83,000 compounds went through this panel and 20% of them were active in at least one assay; those are over-represented in the sample as a whole. Active and inactive are the calls of the source. How the source made its calls: active means growth percent below 10; inactive means the rest.
Use one of these outcomes when replying: active, inactive

Would you please look over these solved cases?
# Compound, Class name
data = [
    ("S=C(c1ccc2c(c1)OCO2)N1CCN(c2cccc(Cl)c2)CC1", "inactive"),
    ("CN(C)c1ccc(-c2ccc3c(c2)c(-c2ccccc2)nc(=O)n3C)cn1", "inactive"),
]

Prompt: // outcome(item) with item = `CC(=O)/C(=C/c1ccc([N+](=O)[O-])cc1)C(=O)c1ccccc1`
Response: inactive

Prompt: // outcome(item) with item = `Nc1c(C(=O)Nc2cccc(Cl)c2)sc2nc3c(cc12)CCCC3`
Response: inactive

Prompt: // outcome(item) with item = `O=C(N/N=C/c1cc(Cl)ccc1O)c1ccccc1Nc1ccnc(C(F)(F)F)c1`
Response: inactive
